- TARGET_SYSTEM: Hap1 (UniProt P0CE41)
- Sequence (P0CE41 whole entry): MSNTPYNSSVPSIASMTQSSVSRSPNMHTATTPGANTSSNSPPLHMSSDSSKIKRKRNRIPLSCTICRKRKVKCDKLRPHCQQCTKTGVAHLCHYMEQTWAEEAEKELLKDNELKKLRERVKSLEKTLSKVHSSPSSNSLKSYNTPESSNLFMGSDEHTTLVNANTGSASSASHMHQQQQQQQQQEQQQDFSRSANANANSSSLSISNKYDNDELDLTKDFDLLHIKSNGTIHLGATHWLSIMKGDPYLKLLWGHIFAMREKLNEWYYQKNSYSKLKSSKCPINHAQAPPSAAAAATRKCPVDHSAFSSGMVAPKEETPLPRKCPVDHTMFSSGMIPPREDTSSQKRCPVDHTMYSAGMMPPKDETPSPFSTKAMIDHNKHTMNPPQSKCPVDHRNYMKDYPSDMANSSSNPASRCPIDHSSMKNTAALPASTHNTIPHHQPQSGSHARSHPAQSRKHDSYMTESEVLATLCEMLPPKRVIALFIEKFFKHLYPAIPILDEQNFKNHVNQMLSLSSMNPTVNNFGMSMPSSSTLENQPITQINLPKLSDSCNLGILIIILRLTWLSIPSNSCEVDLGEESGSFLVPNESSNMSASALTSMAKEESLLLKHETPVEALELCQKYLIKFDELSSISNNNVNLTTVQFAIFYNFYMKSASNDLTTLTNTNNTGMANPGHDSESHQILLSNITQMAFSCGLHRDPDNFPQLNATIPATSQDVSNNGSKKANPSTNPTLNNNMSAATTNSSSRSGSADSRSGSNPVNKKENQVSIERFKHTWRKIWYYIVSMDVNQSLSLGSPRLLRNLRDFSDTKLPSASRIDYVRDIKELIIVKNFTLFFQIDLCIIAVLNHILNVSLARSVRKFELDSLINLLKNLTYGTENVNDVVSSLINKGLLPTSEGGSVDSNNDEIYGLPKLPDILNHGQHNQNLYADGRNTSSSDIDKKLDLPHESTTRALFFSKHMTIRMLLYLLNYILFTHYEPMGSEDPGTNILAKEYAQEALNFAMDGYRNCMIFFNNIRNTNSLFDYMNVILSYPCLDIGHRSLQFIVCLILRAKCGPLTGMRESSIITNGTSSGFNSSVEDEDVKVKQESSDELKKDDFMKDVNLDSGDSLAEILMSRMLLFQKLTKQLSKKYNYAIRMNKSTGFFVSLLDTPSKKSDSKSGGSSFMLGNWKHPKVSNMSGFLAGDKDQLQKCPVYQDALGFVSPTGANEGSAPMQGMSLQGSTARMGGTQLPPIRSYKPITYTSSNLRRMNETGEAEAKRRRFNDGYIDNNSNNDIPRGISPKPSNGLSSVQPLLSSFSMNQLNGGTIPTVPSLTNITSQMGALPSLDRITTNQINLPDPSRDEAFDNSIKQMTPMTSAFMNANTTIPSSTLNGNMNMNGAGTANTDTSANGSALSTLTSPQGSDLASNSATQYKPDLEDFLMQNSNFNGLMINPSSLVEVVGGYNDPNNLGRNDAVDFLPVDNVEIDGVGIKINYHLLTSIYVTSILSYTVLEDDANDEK
- PROCEDURE_TEXT: PBM E-score (8-mer binding enrichment) (E-score (-0.5 to 0.5)); higher = stronger / more preferred TF binding
- TEST_CONDITIONS: protein concentration: 200 nM; construct: GST-DNA-binding domain
Whole data set: some 33,000 sequences, median “E-score (-0.5 to 0.5)” near -0.053, cut for the highest 2% near 0.37. This excerpt belongs to a sample that is enriched for the highest values.
Short version: PBM E-score at least 0.04 is Yes, less is No.

>  <BIOPOLYMER_SEQUENCE>
CGGGCCGA

>  <TARGET_SYSTEM>
Hap1 (UniProt P0CE41)

>  <LABEL>
Yes

$$$$
>  <BIOPOLYMER_SEQUENCE>
AAACTAGC

>  <TARGET_SYSTEM>
Hap1 (UniProt P0CE41)

>  <LABEL>
No

$$$$
>  <BIOPOLYMER_SEQUENCE>
AACGTCCA

>  <TARGET_SYSTEM>
Hap1 (UniProt P0CE41)

>  <LABEL>
No

$$$$
>  <BIOPOLYMER_SEQUENCE>
GGGGAGGA

>  <TARGET_SYSTEM>
Hap1 (UniProt P0CE41)

>  <LABEL>
Yes

$$$$
>  <BIOPOLYMER_SEQUENCE>
TAAGGTCA

>  <TARGET_SYSTEM>
Hap1 (UniProt P0CE41)

>  <LABEL>
No

$$$$
>  <BIOPOLYMER_SEQUENCE>
GCATAGAC

>  <TARGET_SYSTEM>
Hap1 (UniProt P0CE41)

>  <LABEL>
No

$$$$
>  <BIOPOLYMER_SEQUENCE>
GAAACAGC

>  <TARGET_SYSTEM>
Hap1 (UniProt P0CE41)

>  <LABEL>
Yes

$$$$
>  <BIOPOLYMER_SEQUENCE>
ACATTGGA

>  <TARGET_SYSTEM>
Hap1 (UniProt P0CE41)

>  <LABEL>
No

$$$$
>  <BIOPOLYMER_SEQUENCE>
CGCACACA

>  <TARGET_SYSTEM>
Hap1 (UniProt P0CE41)

>  <LABEL>
No

$$$$
>  <BIOPOLYMER_SEQUENCE>
ATCCGCCC

>  <TARGET_SYSTEM>
Hap1 (UniProt P0CE41)

>  <LABEL>
Yes

$$$$
>  <BIOPOLYMER_SEQUENCE>
CCGCCGCC

>  <TARGET_SYSTEM>
Hap1 (UniProt P0CE41)

>  <LABEL>
Yes

$$$$
>  <BIOPOLYMER_SEQUENCE>
AGTAGTGA

>  <TARGET_SYSTEM>
Hap1 (UniProt P0CE41)

>  <LABEL>
No

$$$$
>  <BIOPOLYMER_SEQUENCE>
ATCGTCCG

>  <TARGET_SYSTEM>
Hap1 (UniProt P0CE41)

>  <LABEL>
Yes

$$$$
>  <BIOPOLYMER_SEQUENCE>
ATGGTGTG

>  <TARGET_SYSTEM>
Hap1 (UniProt P0CE41)

>  <LABEL>
No

$$$$
>  <BIOPOLYMER_SEQUENCE>
CACGCCAA

>  <TARGET_SYSTEM>
Hap1 (UniProt P0CE41)

>  <LABEL>
No

$$$$
>  <BIOPOLYMER_SEQUENCE>
ACTGGGGA

>  <TARGET_SYSTEM>
Hap1 (UniProt P0CE41)

>  <LABEL>
No

$$$$
>  <BIOPOLYMER_SEQUENCE>
CGACTGTA

>  <TARGET_SYSTEM>
Hap1 (UniProt P0CE41)

>  <LABEL>
No

$$$$
>  <BIOPOLYMER_SEQUENCE>
CCAGCACG

>  <TARGET_SYSTEM>
Hap1 (UniProt P0CE41)

>  <LABEL>
No

$$$$
>  <BIOPOLYMER_SEQUENCE>
ACGGCCTG

>  <TARGET_SYSTEM>
Hap1 (UniProt P0CE41)

>  <LABEL>
No

$$$$
>  <BIOPOLYMER_SEQUENCE>
CTGAGTCC

>  <TARGET_SYSTEM>
Hap1 (UniProt P0CE41)

>  <LABEL>
No

$$$$
>  <BIOPOLYMER_SEQUENCE>
CCCGTCCG

>  <TARGET_SYSTEM>
Hap1 (UniProt P0CE41)

>  <LABEL>
Yes

$$$$
>  <BIOPOLYMER_SEQUENCE>
CCGGCCTA

>  <TARGET_SYSTEM>
Hap1 (UniProt P0CE41)

>  <LABEL>
Yes

$$$$
>  <BIOPOLYMER_SEQUENCE>
AACCGGCT

>  <TARGET_SYSTEM>
Hap1 (UniProt P0CE41)

>  <LABEL>
Yes

$$$$
>  <BIOPOLYMER_SEQUENCE>
ATCGTCCC

>  <TARGET_SYSTEM>
Hap1 (UniProt P0CE41)

>  <LABEL>
No

$$$$
>  <BIOPOLYMER_SEQUENCE>
GGCACGCC

>  <TARGET_SYSTEM>
Hap1 (UniProt P0CE41)

>  <LABEL>
No

$$$$
>  <BIOPOLYMER_SEQUENCE>
CGAGCAAG

>  <TARGET_SYSTEM>
Hap1 (UniProt P0CE41)

>  <LABEL>
No

$$$$
>  <BIOPOLYMER_SEQUENCE>
AACTGCTT

>  <TARGET_SYSTEM>
Hap1 (UniProt P0CE41)

>  <LABEL>
No

$$$$
>  <BIOPOLYMER_SEQUENCE>
CGGAAGCC

>  <TARGET_SYSTEM>
Hap1 (UniProt P0CE41)

>  <LABEL>
Yes

$$$$
>  <BIOPOLYMER_SEQUENCE>
GGAATCAC

>  <TARGET_SYSTEM>
Hap1 (UniProt P0CE41)

>  <LABEL>
Yes

$$$$
>  <BIOPOLYMER_SEQUENCE>
AAGTTTAT

>  <TARGET_SYSTEM>
Hap1 (UniProt P0CE41)

>  <LABEL>
Yes

$$$$
>  <BIOPOLYMER_SEQUENCE>
GCCGACCC

>  <TARGET_SYSTEM>
Hap1 (UniProt P0CE41)

>  <LABEL>
Yes

$$$$
>  <BIOPOLYMER_SEQUENCE>
ATGGCCGG

>  <TARGET_SYSTEM>
Hap1 (UniProt P0CE41)

>  <LABEL>
Yes

$$$$
>  <BIOPOLYMER_SEQUENCE>
CAAGTTCC

>  <TARGET_SYSTEM>
Hap1 (UniProt P0CE41)

>  <LABEL>
Yes

$$$$
>  <BIOPOLYMER_SEQUENCE>
ACTTCTGG

>  <TARGET_SYSTEM>
Hap1 (UniProt P0CE41)

>  <LABEL>
No

$$$$
>  <BIOPOLYMER_SEQUENCE>
CATAACCG

>  <TARGET_SYSTEM>
Hap1 (UniProt P0CE41)

>  <LABEL>
Yes

$$$$
>  <BIOPOLYMER_SEQUENCE>
GGATTTAA

>  <TARGET_SYSTEM>
Hap1 (UniProt P0CE41)

>  <LABEL>
Yes

$$$$
>  <BIOPOLYMER_SEQUENCE>
ATCCGCCG

>  <TARGET_SYSTEM>
Hap1 (UniProt P0CE41)

>  <LABEL>
Yes

$$$$
>  <BIOPOLYMER_SEQUENCE>
AGGCGCCC

>  <TARGET_SYSTEM>
Hap1 (UniProt P0CE41)

>  <LABEL>
No

$$$$
>  <BIOPOLYMER_SEQUENCE>
ACCGTCCC

>  <TARGET_SYSTEM>
Hap1 (UniProt P0CE41)

>  <LABEL>
Yes

$$$$
>  <BIOPOLYMER_SEQUENCE>
CCGGCCGA

>  <TARGET_SYSTEM>
Hap1 (UniProt P0CE41)

>  <LABEL>
Yes

$$$$
>  <BIOPOLYMER_SEQUENCE>
GACGGGCC

>  <TARGET_SYSTEM>
Hap1 (UniProt P0CE41)

>  <LABEL>
Yes

$$$$
>  <BIOPOLYMER_SEQUENCE>
AGGCAATG

>  <TARGET_SYSTEM>
Hap1 (UniProt P0CE41)

>  <LABEL>
No

$$$$
>  <BIOPOLYMER_SEQUENCE>
GTTTCTAA

>  <TARGET_SYSTEM>
Hap1 (UniProt P0CE41)

>  <LABEL>
Yes

$$$$
>  <BIOPOLYMER_SEQUENCE>
ACCAAGCG

>  <TARGET_SYSTEM>
Hap1 (UniProt P0CE41)

>  <LABEL>
Yes

$$$$
>  <BIOPOLYMER_SEQUENCE>
CACCTGTA

>  <TARGET_SYSTEM>
Hap1 (UniProt P0CE41)

>  <LABEL>
No

$$$$
>  <BIOPOLYMER_SEQUENCE>
ATCCGAAC

>  <TARGET_SYSTEM>
Hap1 (UniProt P0CE41)

>  <LABEL>
Yes

$$$$
